# measurement.protocol: chemical genetic growth profiling, strain panel (AID 1159580);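 note: tested at 20 µM; growth read once vehicle control cultures reached saturation at 30 °C; 1 = growth at the plate median or of vehicle wells; lower values mean less growth of the strain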
# experimental.parameters: S. cerevisiae deletion strains, growth OD, locus YKL085W, strain MDH1, stronger effect = lower value
The campaign covered roughly 5,500 compounds. About 2,000 (36%) were called active. Another 18% or so got no clear call; they are omitted. The list shows a part of the results.
measurement.type: normalized growth
Write the value as a bare number.

Which normalized growth value is on record for CC(=O)C1CC[C@H]2C3CC[C@H]4C[C@H](O)CC[C@]4(C)C3CC[C@]12C (some centres not stated) ? 1.01

Which normalized growth value is on record for COc1ccc(-c2cc(=O)c3c(OC)cc(OC)cc3o2)cc1 ? 1.01

Which normalized growth value is on record for CC(=O)O[C@@H]1CC2C(C)(C)[C@H](O)CC[C@]2(C)C2CC[C@@]3(C)[C@H](c4ccoc4)OC(=O)[C@H]4O[C@]43[C@@]21C (some centres not stated) ? 1.01

Continue with the next molecule.
Which normalized growth value is on record for O=C(O)C(O)C(O)C(O)C(O)C(=O)O (configuration not stated) ? 0.983
